The listing below reports pKi for molecules tested on human σ1 receptor (Homo sapiens, UniProt Q99720).
Sequence (Q99720 whole entry): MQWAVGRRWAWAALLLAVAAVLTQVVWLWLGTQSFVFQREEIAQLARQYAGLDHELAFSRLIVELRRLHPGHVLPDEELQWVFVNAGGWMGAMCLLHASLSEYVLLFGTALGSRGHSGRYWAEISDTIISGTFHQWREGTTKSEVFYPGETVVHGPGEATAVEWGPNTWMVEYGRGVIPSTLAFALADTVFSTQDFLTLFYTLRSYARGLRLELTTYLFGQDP
pKi: −log10 of the molar value.

Use the examples below as a reference point.
# lookup: Cc1cc(-c2nn(C)c(Cl)c2C(=O)N2CCC3(CCN(CC(C)C)CC3)CC2)no1 on human σ1 receptor (Homo sapiens, UniProt Q99720), pKi = < 6.00

# lookup: CCn1nc(-c2cc(C)on2)c(C(=O)N[C@@H]2CCN(CCC(C)(C)C)C2)c1Cl on human σ1 receptor (Homo sapiens, UniProt Q99720), pKi = > 7.00

# lookup: CC(C)CCNC1CCCCN(Cc2c(-c3ccccn3)nn(C)c2Cl)C1 (centres unmarked) on human σ1 receptor (Homo sapiens, UniProt Q99720), pKi = 6.00 to 6.30

// next item, pKi requested
# lookup: Cc1cc(-c2nn(C)c(Cl)c2C(=O)N2CCCC3(CCN(CCC(C)(C)C)CC3)C2)no1 on human σ1 receptor (Homo sapiens, UniProt Q99720), pKi = > 7.00

Where do the numbers come from? From patent US20240239781A1.
